TARGET_ENTITY: 5HT4 receptor (Cavia porcellus, UniProt O70528)
Construct: The longitudinal muscle layer with myenteric plexus was removed
Sequence (O70528 whole entry): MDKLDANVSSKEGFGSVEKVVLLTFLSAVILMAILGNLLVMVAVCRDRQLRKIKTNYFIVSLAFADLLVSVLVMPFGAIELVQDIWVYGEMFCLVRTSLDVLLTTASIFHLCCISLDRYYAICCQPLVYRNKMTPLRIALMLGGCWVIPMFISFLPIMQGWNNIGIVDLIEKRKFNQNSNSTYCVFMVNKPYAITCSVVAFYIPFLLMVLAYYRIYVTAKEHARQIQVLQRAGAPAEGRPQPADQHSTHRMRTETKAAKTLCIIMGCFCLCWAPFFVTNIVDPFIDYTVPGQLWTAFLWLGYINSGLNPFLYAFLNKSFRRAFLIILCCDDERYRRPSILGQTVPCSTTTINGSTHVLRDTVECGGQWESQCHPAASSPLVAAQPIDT
PROTOCOL_DESCRIPTION: Electrically stimulated guinea-pig ileum longitudinal muscle-myenteric plexus strips (titled in vitro binding affinity for the 5HT4 receptor)
CONDITION_SUMMARY: submaximal electrical stimulation
MEASUREMENT_LABEL: pEC50
Reminder that pEC50 means the negative base-10 logarithm of the concentration expressed in mol/L.

-- ask Look up pEC50 for this compound: COCCCN1CC[C@@H](CNC(=O)c2cc(Cl)c(N)c3c2OC(C)(C)C3)[C@H](O)C1
-- reply 8.80
